B1: Pistol ribozyme (parent)
chain: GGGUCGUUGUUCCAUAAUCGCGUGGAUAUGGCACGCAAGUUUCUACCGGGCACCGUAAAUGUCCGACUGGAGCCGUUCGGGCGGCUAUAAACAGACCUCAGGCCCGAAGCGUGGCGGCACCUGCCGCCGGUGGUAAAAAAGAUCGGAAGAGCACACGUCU

- Variants of: B1
- Assay Remarks: aptazyme ON/OFF ratio, guanine; higher = stronger switching; co-transcriptional cleavage with and without guanine
Experimental Readout: aptazyme ON/OFF ratio
Please state the value as a number alone, without comment.

Use these answered entries as a reference point.
Changes | aptazyme ON/OFF ratio
U7G U8A G9A U10A U11C C12G | 1.07
U8G U10A C12G | 1.23
U7C U8G G9C U10C C13G | 1.08

// query # input variant: U7C U8C G9U U10G U11C C12U C13A ; wanted: its aptazyme ON/OFF ratio
// result 1.12
